Test system: SF-268 CNS
Experiment: NCI tumour cell line growth inhibition, 48 h; in the data active means GI50 below about 0.43 µM; inactive means the rest
Outcomes: y (active), n (inactive)

{"columns": ["Compound", "Assigned category"],
 "data": [
  ["O=c1[nH]c2c(ccc3cnccc32)c2c1CCC2", "y"],
  ["NC1=Nc2cc(OCCCCN3Cc4ccccc4C3)c(OCC3CC3)cc2C12CCCC2", "n"],
  ["COc1cccc(-c2cc(-c3ccc(Nc4nc(Nc5ccc(Cl)cc5)nc(Nc5ccc(Cl)cc5)n4)cc3)nc(N)c2C#N)c1", "n"],
  ["N/C(=N\\O)c1cn(C2OC(CO)C(O)C2O)c2ncnc(N)c12 (stereo not given)", "y"],
  ["CC(=O)[O-].O=C([CH-]C(=O)c1ccccc1)c1ccccc1.O=C([CH-]C(=O)c1ccccc1)c1ccccc1.[Dy+3]", "n"],
  ["N#CSc1c[nH]c2cccc(/C=C/C(=O)/C=C(O)/C=C/c3cccc4[nH]cc(SC#N)c34)c12", "n"],
  ["COc1cc(/C=C2\\C(=O)Nc3ccc(O)cc32)cc(OC)c1OC", "n"],
  ["CCOc1ccc(-c2nc3ccc(-c4nc5ccc(N6CCN(C)CC6)cc5[nH]4)cc3[nH]2)cc1OCC", "n"],
  ["N#CCC1CCN(c2nc(Nc3ccc(N4CCC(O)CC4)cc3)c3c(=O)[nH]ncc3n2)CC1", "n"],
  ["Cc1n[nH]c(C)c1-c1c(C)n[nH]c1C", "n"],
  ["CC(C)OC(=O)OCOP(=O)(OCOC(=O)OC(C)C)C1CCCN(O)C1=O (stereo not given)", "n"],
  ["C=C1C(=O)O[C@H]2[C@H]1CC/C(COC(=O)NCc1ccc(Cn3c(=O)sn(CCCI)c3=O)cc1)=C\\CC[C@@]1(C)O[C@@H]21", "n"],
  ["O=C(c1ccco1)c1c(C(F)(F)F)n([O-])c2cc(Cl)c(Cl)cc2[n+]1=O", "y"],
  ["C=C(C)[C@@H]1CC[C@]2(C(=O)OC)CC[C@]3(C)[C@H](CC[C@@H]4[C@@]5(C)CC/C(=N\\OCCC(=NCCC#N)NOCCC#N)C(C)(C)[C@@H]5CC[C@]43C)[C@@H]12", "n"],
  ["C=CN(C(=O)N1CCN(c2cc3c(cc2F)c(=O)c(C(=O)O)cn3C2CC2)CC1)c1nc(-c2ccc(C)cc2)cs1", "n"]
]}
